Ref: patent US11198713B2

Target entity: full-length beta-catenin (Axin site) (Homo sapiens, UniProt P35222)
Construct: 15 nM full-length beta-catenin, 20 nM FITC labeled peptide in buffer
Sequence (P35222 1-781): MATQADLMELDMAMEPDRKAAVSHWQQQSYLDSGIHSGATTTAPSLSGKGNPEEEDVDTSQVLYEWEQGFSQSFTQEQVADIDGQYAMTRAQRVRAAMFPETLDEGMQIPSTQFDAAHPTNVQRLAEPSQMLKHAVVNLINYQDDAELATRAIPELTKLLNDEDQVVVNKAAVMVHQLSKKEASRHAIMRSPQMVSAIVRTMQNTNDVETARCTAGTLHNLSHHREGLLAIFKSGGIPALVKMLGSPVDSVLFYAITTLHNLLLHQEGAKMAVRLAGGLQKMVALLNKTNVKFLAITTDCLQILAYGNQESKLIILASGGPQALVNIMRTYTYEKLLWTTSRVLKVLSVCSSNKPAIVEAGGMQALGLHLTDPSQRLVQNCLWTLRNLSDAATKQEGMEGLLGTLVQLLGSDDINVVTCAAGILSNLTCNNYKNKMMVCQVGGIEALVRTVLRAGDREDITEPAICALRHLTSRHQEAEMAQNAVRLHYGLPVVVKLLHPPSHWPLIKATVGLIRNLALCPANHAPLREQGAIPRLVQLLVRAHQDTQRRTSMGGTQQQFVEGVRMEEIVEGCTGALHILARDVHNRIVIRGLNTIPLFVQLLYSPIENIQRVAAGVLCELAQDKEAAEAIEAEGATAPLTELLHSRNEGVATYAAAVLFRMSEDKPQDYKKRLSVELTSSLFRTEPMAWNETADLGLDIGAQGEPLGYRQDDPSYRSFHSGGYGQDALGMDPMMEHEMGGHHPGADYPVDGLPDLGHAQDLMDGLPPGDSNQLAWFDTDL
Assay info: Competition fluorescence polarization assay (Axin site probe)
Assay type: binding
Test parameters: competition fluorescence polarization, Table 2; read-out: in vitro FP EC50
pEC50: −log10 of the molar value.
We begin with a simple list: items and their reported pEC50.

{"columns": ["Compound", "Reported property", "Recorded measurement"],
 "data": [
  ["CC[C@H](C)[C@@H]1NC(=O)[C@H](Cc2ccccn2)NC(=O)[C@H](C)NC(=O)[C@H](CC(=O)O)NC(=O)[C@H](CC(C)C)NC(=O)[C@H]([C@@H](C)CC)NC(=O)[C@](C)(NC(=O)[C@H](C)NC(C)=O)CCCCCCC=CCOC(=O)N2CC[C@@](C(=O)N[C@H](C(=O)N[C@H](C(=O)N[C@@H](Cc3c[nH]c4ccccc34)C(N)=O)C(C)C)[C@@H](C)O)(C2)NC1=O (single isomer, unassigned) [FP0561c Isomer 2, Ac-A-R8-I-L-D-A-2pyr-I-MB-T-V-W-NH2]", "pEC50", "< 5.30"]
]}

Let us move to another entry and its pEC50.
Asked: What pEC50 value was documented for this compound, CC[C@H](C)[C@@H]1NC(=O)[C@H](Cc2c[nH]cn2)NC(=O)[C@H](C)NC(=O)[C@H](C)NC(=O)[C@H](CC(C)C)NC(=O)[C@H]([C@@H](C)CC)NC(=O)[C@](C)(NC(=O)[C@H](C)NC(C)=O)CCCCCCC=CCOC(=O)N2CC[C@@](C(=O)N[C@@H](CCCNC(=N)N)C(=O)N[C@H](C(=O)N[C@@H](Cc3c[nH]c4ccccc34)C(N)=O)C(C)C)(C2)NC1=O [FP0407c, Ac-A-R8-I-L-A-A-H-I-MB-R-V-W-NH2] ?
Given back: 5.30 to 6.30
